# Species: Rattus norvegicus
# measurement-protocol: Open TG-GATES - Regimen: Daily Repeat
# Type: toxicity, organism-based, Sprague-Dawley
# Set-up: regimen Daily Repeat, gender Male, age 6 weeks
# reported-conditions: in vivo, po, 100 mg/kg, […], tissue Plasma, route gavage, dose level Low, time 14 day
metric: TG (mg/dL)
Quick note: give the figure in mg/dL, leave out the unit.

Q: Return reported TG; argument: O=C(OC[C@H]1O[C@@H](OC(=O)c2cc(O)c(O)c(OC(=O)c3cc(O)c(O)c(O)c3)c2)[C@H](OC(=O)c2cc(O)c(O)c(OC(=O)c3cc(O)c(O)c(O)c3)c2)[C@@H](OC(=O)c2cc(O)c(O)c(OC(=O)c3cc(O)c(O)c(O)c3)c2)[C@@H]1OC(=O)c1cc(O)c(O)c(OC(=O)c2cc(O)c(O)c(O)c2)c1)c1cc(O)c(O)c(OC(=O)c2cc(O)c(O)c(O)c2)c1 [TANNIC ACID]
A: 100.2

Q: Return reported TG; argument: CCOc1ccc(NC(C)=O)cc1 [PHENACETIN]
A: 157

Q: Return reported TG; argument: CNC(=C[N+](=O)[O-])NCCSCc1ccc(CN(C)C)o1 [RANITIDINE]
A: 152

Q: Return reported TG; argument: CN/C(=N/CCSCc1nc[nH]c1C)NC#N [CIMETIDINE]
A: 137.8

Q: Return reported TG; argument: Cc1nnc2n1-c1ccc(Cl)cc1C(c1ccccc1Cl)=NC2 [TRIAZOLAM]
A: 118.2
